Test: Therapeutic index, ratio of HC50 for human RBC to MIC for Bacillus subtilis DSM 347
Assay type: toxicity
Conditions: human red blood cells versus Bacillus subtilis DSM 347
Quick rule: selectivity ratio of at least 20 means label 1, below that means label 0.

Hi, just wondering whether CC(C)[C@@H]1NC(=O)C2=CC3=C4CCCC4=C4C=C(S[C@]4(C)[C@@]3(C)S2)C(=O)[C@H]2CCCN2C(=O)[C@H]([C@@H](C)O)NC(=O)[C@H](CCCN)NC(=O)[C@H](C(C)C)NC(=O)[C@@H]2CCCN2C(=O)[C@@H](Cc2ccccc2)NC(=O)[C@H](C(C)C)NC(=O)[C@H](CCCN)NC1=O shows selectivity ratio of 20 or higher. label 0

Hi, just wondering whether CC(C)[C@@H]1NC(=O)[C@H](CCCN)NC(=O)[C@H]([C@H](O)C(C)C)NC(=O)C2=CC3=C4CCCC4=C4C=C(S[C@]4(C)[C@@]3(C)S2)C(=O)[C@H]2CCCN2C(=O)[C@H](C(C)C)NC(=O)[C@H](CCCN)NC(=O)[C@H](C(C)C)NC(=O)[C@@H]2CCCN2C(=O)[C@@H](Cc2ccccc2)NC1=O shows selectivity ratio of 20 or higher. label 1

Hi, just wondering whether CC(C)C[C@@H]1NC(=O)[C@H](CCCCN)NC(=O)[C@H](C(C)C)NC(=O)C2=CC3=C4CCCC4=C4C=C(S[C@]4(C)[C@@]3(C)S2)C(=O)[C@H]2CCCN2C(=O)[C@H](CC(C)C)NC(=O)[C@H](CCCCN)NC(=O)[C@H](C(C)C)NC(=O)[C@H](CCCCN)NC(=O)[C@H](CC(C)C)NC(=O)[C@@H]2CCCN2C(=O)[C@@H](Cc2ccccc2)NC(=O)[C@H](C(C)C)NC(=O)[C@H](CCCCN)NC1=O shows selectivity ratio of 20 or higher. label 1

Hi, just wondering whether CC(C)C[C@@H]1NC(=O)C2=CC3=C4CCCC4=C4C=C(S[C@]4(C)[C@@]3(C)S2)C(=O)[C@H]2CCCN2C(=O)[C@H](C(C)C)NC(=O)[C@H](CCCCN)NC(=O)[C@H](CC(C)C)NC(=O)[C@H](CCCCN)NC(=O)[C@@H]2CCCN2C(=O)[C@@H](Cc2ccccc2)NC(=O)[C@H](CCCCN)NC(=O)[C@H](C(C)C)NC(=O)[C@H](CCCCN)NC1=O shows selectivity ratio of 20 or higher. label 0

Hi, just wondering whether Cc1sc2cc1C1=C(CCC1)c1cc(sc1C)C(=O)[C@H]1CCCN1C(=O)[C@H](C(C)C)NC(=O)[C@H](CCCN)NC(=O)[C@H](C(C)C)NC(=O)[C@@H]1CCCN1C(=O)[C@@H](Cc1ccccc1)NC(=O)[C@H](C(C)C)NC(=O)[C@H](CCCN)NC(=O)[C@H](CC(=O)NC(C)C)NC2=O shows selectivity ratio of 20 or higher. label 1
